Would you kindly list absorbance 490 nm/630 nm for each of these binders?
# ASSAY TARGET: T1, full-length recombinant human PAD4 (human, UniProt Q9UM07 1-663)
# T1 construct: also called peptidylarginine deiminase 4
# T1 sequence (Q9UM07 whole entry): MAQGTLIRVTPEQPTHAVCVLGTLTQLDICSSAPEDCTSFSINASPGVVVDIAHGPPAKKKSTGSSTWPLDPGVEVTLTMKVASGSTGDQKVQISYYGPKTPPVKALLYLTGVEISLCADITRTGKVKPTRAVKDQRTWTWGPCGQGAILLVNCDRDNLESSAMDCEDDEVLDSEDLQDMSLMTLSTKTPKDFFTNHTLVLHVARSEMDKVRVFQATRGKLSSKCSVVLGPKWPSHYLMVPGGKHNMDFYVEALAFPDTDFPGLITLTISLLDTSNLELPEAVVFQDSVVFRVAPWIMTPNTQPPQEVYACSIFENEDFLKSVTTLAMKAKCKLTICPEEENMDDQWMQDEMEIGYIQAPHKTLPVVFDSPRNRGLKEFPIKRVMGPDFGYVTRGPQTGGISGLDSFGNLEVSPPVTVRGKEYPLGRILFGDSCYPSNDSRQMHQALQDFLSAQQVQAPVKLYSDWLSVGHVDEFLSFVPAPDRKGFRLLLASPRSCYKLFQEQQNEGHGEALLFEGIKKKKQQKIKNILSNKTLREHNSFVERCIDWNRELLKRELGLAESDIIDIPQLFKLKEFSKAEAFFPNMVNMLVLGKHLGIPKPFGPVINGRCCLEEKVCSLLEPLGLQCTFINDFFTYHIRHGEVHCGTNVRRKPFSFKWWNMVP
# PROCEDURE TEXT: ELISA, human PAD4 on plate, antibody 0.0039063 ug/mL
Record the result as a number with its unit.

Please give the measured absorbance 490 nm/630 nm for this binder: A11 (antibody, IgG1, V domains shown, Chicken variable regions in mouse chimeric antibody (IgG1) expression vectors; also called anti-PAD4 antibody A11; A11 etc) VH: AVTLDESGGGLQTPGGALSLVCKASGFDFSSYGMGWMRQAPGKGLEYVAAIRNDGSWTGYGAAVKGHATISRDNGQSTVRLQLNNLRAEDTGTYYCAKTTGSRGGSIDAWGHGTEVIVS VL: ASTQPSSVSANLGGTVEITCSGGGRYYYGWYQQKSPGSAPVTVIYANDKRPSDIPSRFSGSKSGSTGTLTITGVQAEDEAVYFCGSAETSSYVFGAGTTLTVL
1.31 OD

Check G9 (antibody, IgG1, V domains shown, Chicken variable regions in mouse chimeric antibody (IgG1) expression vectors; also called anti-PAD4 antibody G9; A11 etc) VH: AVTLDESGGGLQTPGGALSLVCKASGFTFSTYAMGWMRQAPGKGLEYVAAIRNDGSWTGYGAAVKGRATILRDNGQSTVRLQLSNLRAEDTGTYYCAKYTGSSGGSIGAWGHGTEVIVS VL: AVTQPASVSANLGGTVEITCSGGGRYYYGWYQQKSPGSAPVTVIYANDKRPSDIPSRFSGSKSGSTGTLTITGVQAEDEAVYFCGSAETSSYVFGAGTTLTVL too.
1.36 OD

Check E9 (antibody, IgG1, V domains shown, Chicken variable regions in mouse chimeric antibody (IgG1) expression vectors; also called anti-PAD4 antibody E9; A11 etc) VH: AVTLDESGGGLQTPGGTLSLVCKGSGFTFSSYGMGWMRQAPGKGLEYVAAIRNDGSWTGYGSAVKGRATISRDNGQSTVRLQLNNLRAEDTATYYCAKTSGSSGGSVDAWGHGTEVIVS VL: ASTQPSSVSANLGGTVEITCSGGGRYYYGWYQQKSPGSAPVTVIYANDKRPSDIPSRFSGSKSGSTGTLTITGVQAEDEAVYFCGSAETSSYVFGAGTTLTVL too.
1.36 OD

Check G6 (antibody, IgG1, V domains shown, Chicken variable regions in mouse chimeric antibody (IgG1) expression vectors; also called anti-PAD4 antibody G6; A11 etc) VH: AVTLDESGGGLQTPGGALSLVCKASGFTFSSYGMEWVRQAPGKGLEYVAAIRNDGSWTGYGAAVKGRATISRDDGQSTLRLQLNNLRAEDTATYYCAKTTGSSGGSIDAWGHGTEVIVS VL: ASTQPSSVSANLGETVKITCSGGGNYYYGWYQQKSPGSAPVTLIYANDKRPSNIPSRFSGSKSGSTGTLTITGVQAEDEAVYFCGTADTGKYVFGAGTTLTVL too.
1.16 OD

Check H7 (antibody, IgG1, V domains shown, Chicken variable regions in mouse chimeric antibody (IgG1) expression vectors; also called anti-PAD4 antibody H7; A11 etc) VH: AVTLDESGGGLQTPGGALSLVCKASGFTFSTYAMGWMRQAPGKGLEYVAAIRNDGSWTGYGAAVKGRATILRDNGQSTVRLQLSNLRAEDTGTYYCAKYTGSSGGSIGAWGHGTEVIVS VL: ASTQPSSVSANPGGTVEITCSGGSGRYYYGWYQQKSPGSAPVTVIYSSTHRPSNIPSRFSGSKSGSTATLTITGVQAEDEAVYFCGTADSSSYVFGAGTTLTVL too.
1.35 OD

Check G8 (antibody, IgG1, V domains shown, Chicken variable regions in mouse chimeric antibody (IgG1) expression vectors; also called anti-PAD4 antibody G8; A11 etc) VH: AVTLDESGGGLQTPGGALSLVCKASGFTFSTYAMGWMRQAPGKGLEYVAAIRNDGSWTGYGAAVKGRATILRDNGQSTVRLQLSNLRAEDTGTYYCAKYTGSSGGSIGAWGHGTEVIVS VL: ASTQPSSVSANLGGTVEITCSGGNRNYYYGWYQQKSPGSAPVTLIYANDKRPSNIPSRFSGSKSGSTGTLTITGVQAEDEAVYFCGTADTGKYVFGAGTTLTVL too.
1.34 OD
